Origin of the recorded values: patent US20220348670A1

ELISA Results (OD450) values for the binders below.
Target: Milk
Experiment: phage ELISA, monoclonal phage supernatant on milk (background control)
Your answer is read as OD450, so omit the unit and give the number.

Query: Recorded ELISA Results (OD450) for OX40 BC3-6 (phage-displayed VHH clone) (VHH, Tested as phage in monoclonal culture supernatant (M13 display), not as purified protein; the phage coat fusion is not described) VHH: EVQLVESGGGLVQPGGSLRLSCAASGSILDSNLMGWFRQAPGKGRELVASINSYDDNTYYPDSVEGRFTISRDNAKRMVYLQMNSLRAEDTAVYYCAAQVFVGWPYTDQMHDYWGQGTQVTVSS , please?
Response: 0.045

Query: Recorded ELISA Results (OD450) for OX40 BC3-4 (phage-displayed VHH clone) (VHH, Tested as phage in monoclonal culture supernatant (M13 display), not as purified protein; the phage coat fusion is not described) VHH: EVQLVESGGGLVQPGGSLRLSCAASGFIFSAYFMGWFRQAPGKGRELVAAINSNDDITYYPDSVEGRFTISRDNAKRMVYLQMNSLRAEDTAVYYCAAWLGAENYGYWGQGTQVTVSS , please?
Response: 0.045

Query: Recorded ELISA Results (OD450) for OX40 BC3-7 (phage-displayed VHH clone) (VHH, Tested as phage in monoclonal culture supernatant (M13 display), not as purified protein; the phage coat fusion is not described) VHH: EVQLVESGGGLVQPGGSLRLSCAASGSIYDFDVMGWFRQAPGKGRELVAAINSFGDITYYPDSVEGRFTISRDNAKRMVYLQMNSLRAEDTAVYYCAADWHVLIQQVLGYWGQGTQVTVSS , please?
Response: 0.045

Query: Recorded ELISA Results (OD450) for OX40 BC3-1 (phage-displayed VHH clone) (VHH, Tested as phage in monoclonal culture supernatant (M13 display), not as purified protein; the phage coat fusion is not described) VHH: EVQLVESGGGLVQPGGSLRLSCAASGSIFSVYVMGWFRQAPGKGRELVAAITPFDDNTYYPDSVEGRFTISRDNAKRMVYLQMNSLRAEDTAVYYCAADWEWPEYNYWGQGTQVTVSS , please?
Response: 0.047
